Reference source for all entries: PubChem BioAssay (NCI)

Tested on: SR leukemia
assay-protocol: NCI tumour cell line growth inhibition, 48 h
readout: TGI

In [3]: df
Out[3]:
                                   compound    tested_on  readout    result
0  COc1ccc(-c2nnc3n(Cc4ccccc4)c4ccccc4n3c2=O)cc1  SR leukemia      TGI  > 100 µM
1  CSc1cc(Br)ccc1-n1c(C(=O)c2ccccc2)c(SC)n(-c2ccccc2)c1=O  SR leukemia      TGI  > 100 µM
2  C=C1CCC2C3(C)COC(c4c(OC)cccc4OC)OC3CCC2(C)C1C/C=C1/C(=O)OCC1O (stereo unspecified)  SR leukemia      TGI   4.99 µM

Query block: Please look at this compound and report its TGI: `CO[C@]12C=C/C(=C(/C(=O)OCc3cccnc3)C(=O)CCCCCCCC[C@@]3(OC)C=C/C(=C(/C(=O)OCc4cccnc4)C(=O)CCCCCCCC1)O3)O2`
Result block: > 50 µM

Query block: Please look at this compound and report its TGI: `CCCCc1ccc(-n2sc3ncc([N+](=O)[O-])cc3c2=O)cc1`
Result block: 45.9 µM
